- ASSAY_SYSTEM: human JAK1 (a.a. 837-1142) (Homo sapiens)
- Construct: human JAK1 (a.a. 837-1142); His tag (N); made in house; host or cells: insect cells (baculovirus)
- Sequence (P23458 849-1154): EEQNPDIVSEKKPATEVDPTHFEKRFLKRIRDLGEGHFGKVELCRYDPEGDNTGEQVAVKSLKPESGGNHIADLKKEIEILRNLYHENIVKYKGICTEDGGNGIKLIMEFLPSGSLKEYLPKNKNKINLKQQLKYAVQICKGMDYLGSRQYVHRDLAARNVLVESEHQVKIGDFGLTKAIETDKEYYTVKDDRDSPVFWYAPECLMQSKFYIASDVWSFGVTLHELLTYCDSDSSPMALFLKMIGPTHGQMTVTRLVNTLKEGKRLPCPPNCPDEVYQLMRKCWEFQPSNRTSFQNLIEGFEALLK
- EXPERIMENTAL_PROTOCOL: In vitro JAK kinase assay (HTRF, phosphorylation of a biotinylated peptide), JAK1
- Format: biochemical
- REPORTED_CONDITIONS: Table D1; read-out: JAK1 IC50
pIC50: −log10 of the molar value. Counter-ions that a name gives are not always drawn.
// reported pIC50 for each item listed
RESULT_TYPE: pIC50

[[record]]
molecule = "Cn1cc(C(=O)N2CC[C@H](CC(=O)Nc3ccc4cc3CCc3cncc(c3)Nc3ncc(Cl)c(n3)N4)C2)cn1 [Example D107, bis(trifluoroacetate)]"
result_type = "pIC50"
result_comparator = "="
measured_value = 7.60

[[record]]
molecule = "O=C(C[C@@H]1CCCN(C(=O)Nc2ccccc2)C1)Nc1ccc2cc1CCc1cccc(c1)Nc1ncc(Cl)c(n1)N2 [Example D196, trifluoroacetate]"
result_type = "pIC50"
result_comparator = "="
measured_value = 7.96

[[record]]
molecule = "O=C(C[C@H]1CCCNC1)Nc1ccc2cc1CCc1cccc(c1)Nc1ncc(Cl)c(n1)N2 [Example D193]"
result_type = "pIC50"
result_comparator = "="
measured_value = 8.85

[[record]]
molecule = "O=C(Nc1cccc(F)c1)N1CCC(CCOc2ccc3cc2CCc2cncc(c2)Nc2ncc(Cl)c(n2)N3)CC1 [Example D169, bis(trifluoroacetate)]"
result_type = "pIC50"
result_comparator = "="
measured_value = 7.41

[[record]]
molecule = "CC(=O)N1CCC[C@@H](CC(=O)Nc2ccc3cc2CCc2cccc(c2)Nc2ncc(Cl)c(n2)N3)C1 [Example D200, trifluoroacetate]"
result_type = "pIC50"
result_comparator = "="
measured_value = 8.09

[[record]]
molecule = "CS(=O)(=O)N1CCN(c2ccc(-c3cc4cc(c3)Nc3ncc(Cl)c(n3)Nc3cccc(c3)OCC4)cn2)CC1 [Example D38, bis(trifluoroacetate)]"
result_type = "pIC50"
result_comparator = "="
measured_value = 8.96

[[record]]
molecule = "O=C(C[C@@H]1CCCNC1)Nc1ccc2cc1CCc1cccc(c1)Nc1ncc(Cl)c(n1)N2 [Example D192]"
result_type = "pIC50"
result_comparator = "="
measured_value = 8.33

[[record]]
molecule = "CN1c2cccc(c2)CCc2cccc(c2)Nc2nccc1n2 [Example D223, trifluoroacetate]"
result_type = "pIC50"
result_comparator = "<"
measured_value = 6.40

[[record]]
molecule = "Clc1cnc2nc1Nc1cccc(c1)OCCNc1cccc(c1)N2 [Example D70, bis(trifluoroacetate)]"
result_type = "pIC50"
result_comparator = "="
measured_value = 8.05

[[record]]
molecule = "O=C(C[C@H]1CCN(C(=O)c2c[nH]nn2)C1)Nc1ccc2cc1CCc1cncc(c1)Nc1ncc(Cl)c(n1)N2 [Example D129-a, bis(trifluoroacetate)]"
result_type = "pIC50"
result_comparator = "="
measured_value = 7.82

[[record]]
molecule = "Clc1cnc2nc1Nc1cccc(c1)CSCCc1cccc(c1)N2 [Example D32, trifluoroacetate]"
result_type = "pIC50"
result_comparator = "="
measured_value = 7.39

[[record]]
molecule = "O=C(C[C@H]1CCCN(c2nc3ccccc3s2)C1)Nc1ccc2cc1CCc1cncc(c1)Nc1ncc(Cl)c(n1)N2 [Example D212, tris(trifluoroacetate)]"
result_type = "pIC50"
result_comparator = "="
measured_value = 7.19

[[record]]
molecule = "O=C(Cc1ccccc1)N1CCC(Nc2ccc3cc2CCc2cncc(c2)Nc2ncc(Cl)c(n2)N3)CC1 [Example D159, tris(trifluoroacetate)]"
result_type = "pIC50"
result_comparator = "="
measured_value = 6.50

